- Tested on: Karpas-422 cells
- Assay text: Anti-proliferation by Cell Titer-Glo method (Test Example 3)
- Type: cell-based
- Settings: Homo sapiens, KARPAS-422, read-out: Test Example 3 Karpas-422 cell anti-proliferation IC50(nM)
Measurement kind: IC50 (nM)
One number for each entry, in nM.

Some molecules with known IC50 results, for comparison:
molecule="Cc1cc(C)c(CNC(=O)c2c(C)c3c(c(Cl)c2F)OC[C@H](C2CCC(N(C)C)CC2)O3)c(=O)[nH]1 (stereo partly drawn) [Compound 130]" experimental_target="Karpas-422 cells" measurement_kind=IC50 value=115
molecule="CSc1cc(C)[nH]c(=O)c1CNC(=O)c1cc(Cl)c2c(c1C)O[C@@H]([C@H]1CC[C@@H](N(C)C)CC1)CO2 [Compound 6]" experimental_target="Karpas-422 cells" measurement_kind=IC50 value=1.3
molecule="Cc1cc(C)c(CNC(=O)c2cc(Cl)c3c(c2Cl)O[C@@H]([C@H]2CC[C@@H](N(C)C)CC2)CO3)c(=O)[nH]1 [Compound 143]" experimental_target="Karpas-422 cells" measurement_kind=IC50 value=10.7

As a next step, examine the molecule that follows.
Q: Would you mind telling me what IC50 value was observed for CSc1cc(C)[nH]c(=O)c1CNC(=O)c1cc(Cl)c2c(c1C)O[C@@H]([C@H]1CC[C@@H](N3CCC3)CC1)CO2 [Compound 32] ?
Result: 2

Where these numbers come from: patent US20260184697A1
